System: GST-Bcl-2
Assay: TR-FRET binding assay, Bcl-2
Details: TR-FRET Ki values
recorded.metric: Binding selectivity ratio (Bcl-XL Ki/Bcl-2 Ki)

CC(C)N(CCOc1ccc(-c2ccc(Cl)cc2)c(CN2CCN(c3ccc(C(=O)NS(=O)(=O)c4ccc(NCC5CCOCC5)c([N+](=O)[O-])c4)c(Oc4ccccc4)c3)CC2)c1)C(C)C ... 103.1
CN(C)CCOc1cccc(-c2ccc(Cl)cc2)c1CN1CCN(c2ccc(C(=O)NS(=O)(=O)c3ccc(NCCCN4CCCC4)c([N+](=O)[O-])c3)c(Oc3ccccc3)c2)CC1 ... 91.5
CN1CCC(Nc2ccc(S(=O)(=O)NC(=O)c3ccc(N4CCN(CC5=C(c6ccc(Cl)cc6)CC(C)(C)CC5)CC4)cc3Oc3cccc4[nH]ccc34)cc2[N+](=O)[O-])CC1 ... 2096.1
CC1(C)CCC(CN2CCN(c3ccc(C(=O)NS(=O)(=O)c4ccc(NCCCN5CCNC(=O)C5)c([N+](=O)[O-])c4)c(Oc4ccc5[nH]ccc5c4)c3)CC2)=C(c2ccc(Cl)cc2)C1 ... 1275.3
